# TARGET_DESC: PARP-1 enzyme (Cricetulus griseus (Chinese hamster) (Cricetulus barabensis griseus))
# Sequence (Q9R152 whole entry): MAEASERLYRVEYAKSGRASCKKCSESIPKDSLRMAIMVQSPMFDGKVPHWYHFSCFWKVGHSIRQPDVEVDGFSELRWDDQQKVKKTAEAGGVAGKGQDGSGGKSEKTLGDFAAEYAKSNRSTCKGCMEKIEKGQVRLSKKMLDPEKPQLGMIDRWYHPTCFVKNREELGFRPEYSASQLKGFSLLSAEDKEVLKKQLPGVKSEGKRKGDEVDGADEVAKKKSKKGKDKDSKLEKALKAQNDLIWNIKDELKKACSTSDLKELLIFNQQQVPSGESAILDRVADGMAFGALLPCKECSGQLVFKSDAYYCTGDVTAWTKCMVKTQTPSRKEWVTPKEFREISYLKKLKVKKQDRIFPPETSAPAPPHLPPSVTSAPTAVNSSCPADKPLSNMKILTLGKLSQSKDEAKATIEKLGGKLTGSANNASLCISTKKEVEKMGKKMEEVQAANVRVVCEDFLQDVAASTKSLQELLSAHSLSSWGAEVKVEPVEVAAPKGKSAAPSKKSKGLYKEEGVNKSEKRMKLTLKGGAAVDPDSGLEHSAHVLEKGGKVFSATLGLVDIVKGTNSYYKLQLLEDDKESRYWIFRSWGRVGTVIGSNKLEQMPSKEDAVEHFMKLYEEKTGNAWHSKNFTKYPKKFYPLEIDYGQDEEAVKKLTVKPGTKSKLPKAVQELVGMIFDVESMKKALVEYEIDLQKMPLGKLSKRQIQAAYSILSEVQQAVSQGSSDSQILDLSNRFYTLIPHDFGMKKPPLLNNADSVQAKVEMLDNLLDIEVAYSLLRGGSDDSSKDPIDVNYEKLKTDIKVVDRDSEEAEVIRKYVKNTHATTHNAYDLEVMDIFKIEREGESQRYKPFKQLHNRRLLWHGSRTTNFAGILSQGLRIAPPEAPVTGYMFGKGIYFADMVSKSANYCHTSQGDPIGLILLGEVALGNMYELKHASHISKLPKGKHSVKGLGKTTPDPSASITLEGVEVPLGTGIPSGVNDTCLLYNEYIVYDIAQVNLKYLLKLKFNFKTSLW
# ASSAY_EXPLANATION: Intracellular PARP inhibitory activity (NAD(P)H released by MMS-treated CHO-K1 cells)
# Format: cell-based
Where a name gives a salt, the structure may show the parent alone.
Under this convention, met denotes IC50 strictly below 0.9 µM and not met denotes IC50 at or above 0.9 µM.

Qu. Answer whether the compound CN(C)Cc1ccc2c3c(c(=O)[nH]c2c1)CCCN3C [Example 66, dihydrochloride] has IC50 strictly less than 0.9 µM
Ans. met

Qu. Answer whether the compound CCNCc1cc(OCC)c2c3c(c(=O)[nH]c2c1)CCCN3 [Example 104, dihydrochloride] has IC50 strictly less than 0.9 µM
Ans. not met

Qu. Answer whether the compound COCCOc1ccc2[nH]c(=O)c3c(c2c1)NCCC3 [Example 18, hydrochloride] has IC50 strictly less than 0.9 µM
Ans. not met

Qu. Answer whether the compound CN(CCO)Cc1ccc2c3c(c(=O)[nH]c2c1)CCCN3 [Example 53, dihydrochloride] has IC50 strictly less than 0.9 µM
Ans. met

Qu. Answer whether the compound CCNCc1ccc2c3c(c(=O)[nH]c2c1)CCCN3 [Example 43, dihydrochloride] has IC50 strictly less than 0.9 µM
Ans. not met

Qu. Answer whether the compound COc1cc(CN2CCSCC2)cc2[nH]c(=O)c3c(c12)NCCC3 [Example 106, dihydrochloride] has IC50 strictly less than 0.9 µM
Ans. met

Qu. Answer whether the compound O=c1[nH]c2cc(CN3CCCCC3)ccc2c2c1CCCN2 [Example 48, dihydrochloride] has IC50 strictly less than 0.9 µM
Ans. met

Qu. Answer whether the compound COCCOc1cc(CN2CCOCC2)cc2[nH]c(=O)c3c(c12)NCCC3 [Example 117, dihydrochloride] has IC50 strictly less than 0.9 µM
Ans. not met

Qu. Answer whether the compound CCCOc1cc(CN2CCOCC2)cc2[nH]c(=O)c3c(c12)NCCC3 [Example 111, dihydrochloride] has IC50 strictly less than 0.9 µM
Ans. not met

Qu. Answer whether the compound O=c1[nH]c2cc(CN3CCCC3)ccc2c2c1CCCN2 [Example 44, dihydrochloride] has IC50 strictly less than 0.9 µM
Ans. met

Qu. Answer whether the compound CCCN(C)Cc1ccc2c3c(c(=O)[nH]c2c1)CCCN3 [Example 56, dihydrochloride] has IC50 strictly less than 0.9 µM
Ans. met

Qu. Answer whether the compound COc1cc(CN2CCOCC2)cc2[nH]c(=O)c3c(c12)NCCC3 [Example 74, dihydrochloride] has IC50 strictly less than 0.9 µM
Ans. not met

Qu. Answer whether the compound O=c1[nH]c2ccc(OCCN3CCCCC3)cc2c2c1CCCN2 [Example 17, dihydrochloride] has IC50 strictly less than 0.9 µM
Ans. not met
